system: HEK293T-Rex XBP1-RLuc; experiment: XBP1-RLuc splicing reporter activation, triplicate, relative to 500 nM thapsigargin (% of thapsigargin); higher = stronger IRE1/XBP1s reporter activation; details: 6.8 µM; 18 h; screen: confirmation
Quick reference: XBP1-RLuc splicing reporter activation of the listed items.

[
  {
    "Molecule": "Cc1ccc(/C=C(\\C#N)C(=O)Nc2cccc(Cl)c2)o1",
    "XBP1-RLuc splicing reporter activation": 0.278
  },
  {
    "Molecule": "CCCc1cc(C(=O)Nc2cc(C)ccc2O)no1",
    "XBP1-RLuc splicing reporter activation": 24.5
  },
  {
    "Molecule": "O=C(N/N=C/c1ccc2c(c1)OCO2)c1cccc(F)c1",
    "XBP1-RLuc splicing reporter activation": 1.67
  },
  {
    "Molecule": "CCCNc1ccnc(N2CCc3ccccc3C2)n1",
    "XBP1-RLuc splicing reporter activation": -1.35
  },
  {
    "Molecule": "Nc1nc(Nc2ccccc2)cc(-c2ccccc2)n1",
    "XBP1-RLuc splicing reporter activation": 1.44
  },
  {
    "Molecule": "Cc1ccc(O)c(N/C=C/C(=O)c2ccc(F)cc2)c1",
    "XBP1-RLuc splicing reporter activation": 10.3
  },
  {
    "Molecule": "N#Cc1c(NC(=O)c2cccc(F)c2)sc2c1CCC2",
    "XBP1-RLuc splicing reporter activation": 2
  },
  {
    "Molecule": "CCOc1cccc(/C=C2\\NC(=S)N(C)C2=O)c1O",
    "XBP1-RLuc splicing reporter activation": -2.09
  },
  {
    "Molecule": "CC(=O)c1cccc(Nc2nc(-c3ccc(O)c(O)c3)cs2)c1",
    "XBP1-RLuc splicing reporter activation": 21.8
  },
  {
    "Molecule": "CCOc1cc(/C=C2/NC(=O)N(Cc3ccc(F)cc3)C2=O)ccc1O",
    "XBP1-RLuc splicing reporter activation": 33.6
  },
  {
    "Molecule": "CCOc1cc(C2C(C(=O)OC3CCCCC3)=C(C)NC3=C2C(=O)CC(c2ccc(OC)cc2)C3)cc(Br)c1O (configuration not stated)",
    "XBP1-RLuc splicing reporter activation": 18.5
  },
  {
    "Molecule": "N#C/C(=C(/O)c1cc(-c2ccccc2)nc2ccccc12)c1nc2ccccc2[nH]1",
    "XBP1-RLuc splicing reporter activation": 9.52
  }
]
